PROTOCOL_SUMMARY: Cytotoxicity against human Huh7.5.1 cells by fluorescent cell viability assay
Format: cell-based, Huh-7
MEASUREMENT_PARAMETERS: huh-7
Quick reference for CC50 among some compounds
Report the figure in µM without appending any unit label.

Exam item: Would you kindly share the measured CC50 for "CCCCCCCCCCCCCCCCOCCCOP(=O)(O)CO[C@H](COC)Cn1cnc2c(N)nc(N)nc21" ?
Marked response: 91.5

Exam item: Which CC50 is reported for this compound? CCCCCCCCCCCCCCCCOCCCOP(=O)(O)COC(COCC)Cn1cnc2c(N)ncnc21 (racemic)
Marked response: 99

---

Listed here: items and their measured selectivity ratio.
PROTOCOL_SUMMARY: Selectivity index, ratio of CC50 for human MT2 cells to EC50 for HIV-1 LAI infected in human MT2 cells
Assay type: toxicity, cell-based
MEASUREMENT_PARAMETERS: read-out: Ratio CC50/EC50
Just the number.

SMILES_ENTRY: CCCCCCCCCCCCCCCCCCOCCOP(=O)(O)CO[C@H](COC)Cn1ccc(N)nc1=O
selectivity ratio: 4.8

Exam item: Param item = "CCCCCCCCCCCCCCCCCCOCCOP(=O)([O-])CO[C@H](COC)Cn1cnc2c(=O)[nH]c(N)nc21.[Na+]" ; retrieve measured selectivity ratio.
Marked response: 125

---

System: Hepatitis C virus
PROTOCOL_SUMMARY: Antiviral activity against HCV JFH-1 infected in human Huh-7.5.1 cells after 48 to 72 hrs by luciferase reporter assay
Format: functional, organism-based, Hepacivirus hominis
MEASUREMENT_PARAMETERS: JFH-1, Huh-7.5.1
PROPERTY_NAME: EC50

Recorded results for 3 compounds are shown here.
COMPOUND: CCCCCCCCCCCCCCCCOCCCOP(=O)(O)CO[C@H](COC)Cn1cnc2c(=O)[nH]c(N)nc21
EC50: 24.8 µM
//
COMPOUND: CCCCCCCCCCCCCCCCCCOCCOP(=O)(O)CO[C@H](COC)Cn1cnc2c(N)nc(N)nc21
EC50: 21.4 µM
//
COMPOUND: CCCCCCCCCCCCCCCCOCCCOP(=O)([O-])COC(COCC)Cn1cnc2c(N)nc(N)nc21.[Na+] (racemic)
EC50: 19.5 µM

Exam item: Which EC50 is listed for "CCCCCCCCCCCCCCCCCCOCCOP(=O)([O-])CO[C@H](COC)Cn1cnc2c(=O)[nH]c(N)nc21.[Na+]" ?
Marked response: 10.7 µM

---

CC50 values, listed per item
Tested on: MT2
PROTOCOL_SUMMARY: Cytotoxicity against human MT2 cells after 72 hrs by propidium iodide staining-based flow cytometry
Type: cell-based
MEASUREMENT_PARAMETERS: mt2, 72 h
// units = µM; emit number, no label

MOLECULE: CCCCCCCCCCCCCCCCOCCCOP(=O)(O)COC(COC(C)C)Cn1cnc2c(N)ncnc21 (racemic)
CC50 / µM: 30.3
//
MOLECULE: CCCCCCCCCCCCCCCCOCCCOP(=O)(O)CO[C@H](COC)Cn1cnc2c(OC)nc(N)nc21
CC50 / µM: 34.3
//
MOLECULE: CCCCCCCCCCCCCCCCCCOCCOP(=O)(O)CO[C@H](CO)Cn1cnc2c(N)ncnc21
CC50 / µM: 0.033
//
MOLECULE: CCCCCCCCCCCCCCCCOCCCOP(=O)(O)CO[C@H](COC)Cn1cnc2c(=O)[nH]c(N)nc21
CC50 / µM: 29.3
//
MOLECULE: CCCCCCCCCCCCCCCCCCOCCOP(=O)(O)CO[C@@H](COC)Cn1cnc2c(N)nc(N)nc21
CC50 / µM: 19.7
//
MOLECULE: CCCCCCCCCCCCCCCCCCOCCOP(=O)([O-])CO[C@H](COC)Cn1cnc2c(=O)[nH]c(N)nc21.[Na+]
CC50 / µM: 25
//
MOLECULE: CCCCCCCCCCCCCCCCOCCCOP(=O)(O)COC(COCC)Cn1cnc2c(N)ncnc21 (racemic)
CC50 / µM: 23.6
//
MOLECULE: CCCCCCCCCCCCCCCCOCCCOP(=O)(O)CO[C@H](COC)Cn1cnc2c(OC)ncnc21
CC50 / µM: 22
//
MOLECULE: CCCCCCCCCCCCCCCCOCCCOP(=O)(O)CO[C@H](COC)Cn1cnc2c(N)ncnc21
CC50 / µM: 32
//
MOLECULE: CCCCCCCCCCCCCCCCOCCCOP(=O)([O-])COC(COCC)Cn1cnc2c(=O)[nH]c(N)nc21.[Na+] (racemic)
CC50 / µM: 14.9

Exam item: // CC50 lookup, key: "CCCCCCCCCCCCCCCCCCOCCOP(=O)([O-])CO[C@@H](COC)Cn1cnc2c(=O)[nH]c(N)nc21.[Na+]"
Marked response: 44

Exam item: I have this molecule here, "CCCCCCCCCCCCCCCCCCOCCOP(=O)(O)CO[C@H](COC)Cn1cnc2c(N)nc(N)nc21" , and I need its recorded CC50.
Marked response: 18

Exam item: State the recorded CC50 for this entry: "CCCCCCCCCCCCCCCCOCCCOP(=O)(O)CO[C@H](COC)Cn1cnc2c(N)nc(N)nc21"
Marked response: 22.7

Exam item: Reported CC50, molecule CCCCCCCCCCCCCCCCOCCCOP(=O)([O-])COC(COCC)Cn1cnc2c(N)nc(N)nc21.[Na+] (racemic) : ____
Marked response: 30.7

Exam item: Given the entry "CCCCCCCCCCCCCCCCCCOCCOP(=O)(O)CO[C@H](COC)Cn1ccc(N)nc1=O" , report its measured CC50.
Marked response: 60.7

---

System: Human betaherpesvirus 5
PROTOCOL_SUMMARY: Antiviral activity against Human cytomegalovirus infected in human HFF cells after 8 days by Plaque reduction assay
Type: functional, organism-based
MEASUREMENT_PARAMETERS: Human betaherpesvirus 5, HFF, 192 h
PROPERTY_NAME: pEC50
Just the number, please; pEC50 means minus log10 of the concentration in mol/L.

Exam item: Reported pEC50 for "CCCCCCCCCCCCCCCCCCOCCOP(=O)(O)CO[C@H](COC)Cn1cnc2c(N)ncnc21" : what is it?
Marked response: 5.81

---

Recorded EC50 values for a group of molecules are listed next.
Tested on: Hepatitis C virus
PROTOCOL_SUMMARY: Antiviral activity against Hepatitis C virus genotype 1b infected in human Huh-7.5.1 cells after 48 to 72 hrs by luciferase reporter assay
Format: functional, organism-based, Hepacivirus hominis
Give the value in µM but do not write µM after it.

// below: answered molecules
MOLECULE: CCCCCCCCCCCCCCCCCCOCCOP(=O)([O-])CO[C@@H](COC)Cn1cnc2c(=O)[nH]c(N)nc21.[Na+]
RECORDED_RESULT: 12.6
//
MOLECULE: CCCCCCCCCCCCCCCCOCCCOP(=O)(O)CO[C@H](COC)Cn1cnc2c(OC)ncnc21
RECORDED_RESULT: 8.9

Exam item: Entry "CCCCCCCCCCCCCCCCOCCCOP(=O)(O)CO[C@H](COC)Cn1cnc2c(N)ncnc21" has what EC50?
Marked response: 2.36

Exam item: Quick check: EC50 of CCCCCCCCCCCCCCCCOCCCOP(=O)(O)COC(COCC)Cn1cnc2c(N)ncnc21 (racemic) ?
Marked response: 7.59

Exam item: Quick check: EC50 of CCCCCCCCCCCCCCCCOCCCOP(=O)([O-])COC(COCC)Cn1cnc2c(N)nc(N)nc21.[Na+] (racemic) ?
Marked response: 18.2

---

PROTOCOL_SUMMARY: Cytotoxicity against human Huh7.5.1 cells by fluorescent cell viability assay
Type: cell-based, Huh-7
MEASUREMENT_PARAMETERS: huh-7
Catalogue of compounds with associated CC50
The figure you give is taken to be in µM; do not add the unit.

Previously resolved entries follow.
COMPOUND: CCCCCCCCCCCCCCCCOCCCOP(=O)(O)COC(COC(C)C)Cn1cnc2c(N)ncnc21 (racemic)
PROPERTY_NAME: CC50
RECORDED_RESULT: 100
--
COMPOUND: CCCCCCCCCCCCCCCCCCOCCOP(=O)(O)CO[C@H](CO)Cn1cnc2c(N)ncnc21
PROPERTY_NAME: CC50
RECORDED_RESULT: 35.6

Consider the additional compound presented here.
Exam item: Item "CCCCCCCCCCCCCCCCCCOCCOP(=O)(O)CO[C@H](COC)Cn1cnc2c(N)nc(N)nc21" has what recorded CC50?
Marked response: 99

---

Test system: Hepatitis C virus
PROTOCOL_SUMMARY: Antiviral activity against Hepatitis C virus genotype 1b infected in human Huh-7.5.1 cells after 48 to 72 hrs by luciferase reporter assay
Assay type: functional, organism-based, Hepacivirus hominis
Recorded pEC50 for the following compounds
# pEC50 is unitless: minus log10 of the molar concentration; print number only

Below, 3 compounds whose answers are already recorded.
COMPOUND: CCCCCCCCCCCCCCCCOCCCOP(=O)(O)CO[C@H](COC)Cn1cnc2c(N)nc(N)nc21
SYSTEM_TESTED: Hepatitis C virus
PROPERTY_NAME: pEC50
RECORDED_RESULT: 4.67

COMPOUND: CCCCCCCCCCCCCCCCOCCCOP(=O)(O)COC(COC(C)C)Cn1cnc2c(N)ncnc21 (racemic)
SYSTEM_TESTED: Hepatitis C virus
PROPERTY_NAME: pEC50
RECORDED_RESULT: 4.29

COMPOUND: CCCCCCCCCCCCCCCCCCOCCOP(=O)(O)CO[C@H](CO)Cn1cnc2c(N)ncnc21
SYSTEM_TESTED: Hepatitis C virus
PROPERTY_NAME: pEC50
RECORDED_RESULT: 5.81

Exam item: Return reported pEC50; argument: "CCCCCCCCCCCCCCCCCCOCCOP(=O)([O-])CO[C@H](COC)Cn1cnc2c(=O)[nH]c(N)nc21.[Na+]"
Marked response: 5.08

Exam item: I'd like to know its pEC50. The compound in question is "CCCCCCCCCCCCCCCCCCOCCOP(=O)(O)CO[C@@H](COC)Cn1cnc2c(N)ncnc21"
Marked response: 5.33

Exam item: So what's the measured pEC50 for this one? CCCCCCCCCCCCCCCCOCCCOP(=O)([O-])COC(COCC)Cn1cnc2c(=O)[nH]c(N)nc21.[Na+] (racemic)
Marked response: 4.59
